- Test system: E. coli CVM 15100 (mir1)
- Format: cell-based, Escherichia coli
Where a SMILES comes first, the peptide text is derived from it. Bridges are numbered along the chain shown (N, C = ends). [ ]: non-standard residue; d: D form. The star is where a group is joined. Pentadecanoyl = CCCCCCCCCCCCCCC(=O)*; Tridecanoyl = CCCCCCCCCCCCC(=O)*; Undecanoyl = CCCCCCCCCCC(=O)*; dOrn = NCCC[C@@H](N)C(=O)O
Please go through the items and note down their MIC.
Write down the numeric answer in µg/mL and omit the unit.

Incoming: Please give the documented MIC of CCCCCCCCCCCCC(=O)N[C@H](CCCN)C(=O)N[C@H](C(=O)N[C@@H]1C(=O)N[C@H](CCCN)C(=O)N[C@@H](CO)C(=O)N[C@@H](Cc2ccccc2)C(=O)N[C@H](CCCCN)C(=O)N[C@H](CO)C(=O)N[C@@H]([C@@H](C)CC)C(=O)N2CCC[C@H]2C(=O)N[C@@H]([C@@H](C)CC)C(=O)N2CCC[C@H]2C(=O)N[C@@H]([C@@H](C)CC)C(=O)O[C@@H]1C)C(C)C [Variant D] (Tridecanoyl-[dOrn]VT[dOrn]SF[dK][dS]IPIPI; ester 3-C; N-terminus assumed)
Outgoing: 8

Incoming: Please give the documented MIC of CCCCCCCCCCCCC(=O)N[C@H](CCCN)C(=O)N[C@H](C(=O)N[C@@H]1C(=O)N[C@H](CCCN)C(=O)N[C@@H](CO)C(=O)N[C@@H](Cc2ccc(O)cc2)C(=O)N[C@H](CCCCN)C(=O)N[C@H](CO)C(=O)N[C@@H]([C@@H](C)CC)C(=O)N2CCC[C@H]2C(=O)N[C@@H]([C@@H](C)CC)C(=O)N2CCC[C@H]2C(=O)N[C@@H]([C@@H](C)CC)C(=O)O[C@@H]1C)C(C)C [Compound A D-form] (Tridecanoyl-[dOrn]VT[dOrn]SY[dK][dS]IPIPI; ester 3-C)
Outgoing: 8

Incoming: Please give the documented MIC of CCCCCCCCCCC(=O)N[C@H](CCCN)C(=O)N[C@H](C(=O)N[C@@H]1C(=O)N[C@H](CCCN)C(=O)N[C@@H](CO)C(=O)N[C@@H](Cc2ccc(O)cc2)C(=O)N[C@H](CCCCN)C(=O)N[C@H](CO)C(=O)N[C@@H]([C@@H](C)CC)C(=O)N2CCC[C@H]2C(=O)N[C@@H]([C@@H](C)CC)C(=O)N2CCC[C@H]2C(=O)N[C@@H]([C@@H](C)CC)C(=O)O[C@@H]1C)C(C)C [Compound C] (Undecanoyl-[dOrn]VT[dOrn]SY[dK][dS]IPIPI; ester 3-C; N-terminus assumed)
Outgoing: 8

Incoming: Please give the documented MIC of CCCCCCCCCCCCCCC(=O)N[C@H](CCCN)C(=O)N[C@H](C(=O)N[C@@H]1C(=O)N[C@H](CCCN)C(=O)N[C@@H](CO)C(=O)N[C@@H](Cc2ccc(O)cc2)C(=O)N[C@H](CCCCN)C(=O)N[C@H](CO)C(=O)N[C@@H]([C@@H](C)CC)C(=O)N2CCC[C@H]2C(=O)N[C@@H]([C@@H](C)CC)C(=O)N2CCC[C@H]2C(=O)N[C@@H]([C@@H](C)CC)C(=O)O[C@@H]1C)C(C)C [Compound B] (Pentadecanoyl-[dOrn]VT[dOrn]SY[dK][dS]IPIPI; ester 3-C; N-terminus assumed)
Outgoing: 16

Incoming: Please give the documented MIC of CCCCCCCCCCCCC(=O)N[C@H](CCCN)C(=O)N[C@H](C(=O)N[C@@H]1C(=O)N[C@H](CCCN)C(=O)N[C@@H](CO)C(=O)N[C@@H](Cc2ccc(O)cc2)C(=O)N[C@@H](CCCCN)C(=O)N[C@H](CO)C(=O)N[C@@H]([C@@H](C)CC)C(=O)N2CCC[C@H]2C(=O)N[C@@H]([C@@H](C)CC)C(=O)N2CCC[C@H]2C(=O)N[C@@H]([C@@H](C)CC)C(=O)O[C@@H]1C)C(C)C [Compound A L-form] (Tridecanoyl-[dOrn]VT[dOrn]SYK[dS]IPIPI; ester 3-C)
Outgoing: 8

----------
- Tested on: S. Newport CVM 40115 (cmy 2)
- Format: cell-based, Salmonella
Where a SMILES comes first, the peptide text is derived from it. Bridges are numbered along the chain shown (N, C = ends). [ ]: non-standard residue; d: D form. The star is where a group is joined. Tridecanoyl = CCCCCCCCCCCCC(=O)*; dOrn = NCCC[C@@H](N)C(=O)O
Please go through the items and note down their MIC.
Write down the numeric answer in µg/mL and omit the unit.

Incoming: Please give the documented MIC of CCCCCCCCCCCCC(=O)N[C@H](CCCN)C(=O)N[C@H](C(=O)N[C@@H]1C(=O)N[C@H](CCCN)C(=O)N[C@@H](CO)C(=O)N[C@@H](Cc2ccccc2)C(=O)N[C@H](CCCCN)C(=O)N[C@H](CO)C(=O)N[C@@H]([C@@H](C)CC)C(=O)N2CCC[C@H]2C(=O)N[C@@H]([C@@H](C)CC)C(=O)N2CCC[C@H]2C(=O)N[C@@H]([C@@H](C)CC)C(=O)O[C@@H]1C)C(C)C [Variant D] (Tridecanoyl-[dOrn]VT[dOrn]SF[dK][dS]IPIPI; ester 3-C; N-terminus assumed)
Outgoing: 8

Incoming: Please give the documented MIC of CCCCCCCCCCCCC(=O)N[C@H](CCCN)C(=O)N[C@H](C(=O)N[C@@H]1C(=O)N[C@H](CCCN)C(=O)N[C@@H](CO)C(=O)N[C@@H](Cc2ccc(O)cc2)C(=O)N[C@@H](CCCCN)C(=O)N[C@H](CO)C(=O)N[C@@H]([C@@H](C)CC)C(=O)N2CCC[C@H]2C(=O)N[C@@H]([C@@H](C)CC)C(=O)N2CCC[C@H]2C(=O)N[C@@H]([C@@H](C)CC)C(=O)O[C@@H]1C)C(C)C [Compound A L-form] (Tridecanoyl-[dOrn]VT[dOrn]SYK[dS]IPIPI; ester 3-C)
Outgoing: 8

Incoming: Please give the documented MIC of CCCCCCCCCCCCC(=O)N[C@H](CCCN)C(=O)N[C@H](C(=O)N[C@@H]1C(=O)N[C@H](CCCN)C(=O)N[C@@H](CO)C(=O)N[C@@H](Cc2ccc(O)cc2)C(=O)N[C@H](CCCCN)C(=O)N[C@H](CO)C(=O)N[C@@H]([C@@H](C)CC)C(=O)N2CCC[C@H]2C(=O)N[C@@H]([C@@H](C)CC)C(=O)N2CCC[C@H]2C(=O)N[C@@H]([C@@H](C)CC)C(=O)O[C@@H]1C)C(C)C [Compound A D-form] (Tridecanoyl-[dOrn]VT[dOrn]SY[dK][dS]IPIPI; ester 3-C)
Outgoing: 8

----------
- Test system: S. aureus 4
- Test Name: microbe, parasite or virus in culture
- Assay type: cell-based, Staphylococcus aureus
- Experimental Conditions: 4
Where a SMILES comes first, the peptide text is derived from it. Bridges are numbered along the chain shown (N, C = ends). [ ]: non-standard residue; d: D form. The star is where a group is joined. Tridecanoyl = CCCCCCCCCCCCC(=O)*; Undecanoyl = CCCCCCCCCCC(=O)*; dOrn = NCCC[C@@H](N)C(=O)O
Please go through the items and note down their MIC.
Write down the numeric answer in µg/mL and omit the unit.

Incoming: Please give the documented MIC of CCCCCCCCCCCCC(=O)N[C@H](CCCN)C(=O)N[C@H](C(=O)N[C@@H]1C(=O)N[C@H](CCCN)C(=O)N[C@@H](CO)C(=O)N[C@@H](Cc2ccccc2)C(=O)N[C@H](CCCCN)C(=O)N[C@H](CO)C(=O)N[C@@H]([C@@H](C)CC)C(=O)N2CCC[C@H]2C(=O)N[C@@H]([C@@H](C)CC)C(=O)N2CCC[C@H]2C(=O)N[C@@H]([C@@H](C)CC)C(=O)O[C@@H]1C)C(C)C [Variant D] (Tridecanoyl-[dOrn]VT[dOrn]SF[dK][dS]IPIPI; ester 3-C; N-terminus assumed)
Outgoing: 8

Incoming: Please give the documented MIC of CCCCCCCCCCC(=O)N[C@H](CCCN)C(=O)N[C@H](C(=O)N[C@@H]1C(=O)N[C@H](CCCN)C(=O)N[C@@H](CO)C(=O)N[C@@H](Cc2ccc(O)cc2)C(=O)N[C@H](CCCCN)C(=O)N[C@H](CO)C(=O)N[C@@H]([C@@H](C)CC)C(=O)N2CCC[C@H]2C(=O)N[C@@H]([C@@H](C)CC)C(=O)N2CCC[C@H]2C(=O)N[C@@H]([C@@H](C)CC)C(=O)O[C@@H]1C)C(C)C [Compound C] (Undecanoyl-[dOrn]VT[dOrn]SY[dK][dS]IPIPI; ester 3-C; N-terminus assumed)
Outgoing: 8

Incoming: Please give the documented MIC of CCCCCCCCCCCCC(=O)N[C@H](CCCN)C(=O)N[C@H](C(=O)N[C@@H]1C(=O)N[C@H](CCCN)C(=O)N[C@@H](CO)C(=O)N[C@@H](Cc2ccc(O)cc2)C(=O)N[C@H](CCCCN)C(=O)N[C@H](CO)C(=O)N[C@@H]([C@@H](C)CC)C(=O)N2CCC[C@H]2C(=O)N[C@@H]([C@@H](C)CC)C(=O)N2CCC[C@H]2C(=O)N[C@@H]([C@@H](C)CC)C(=O)O[C@@H]1C)C(C)C [Compound A D-form] (Tridecanoyl-[dOrn]VT[dOrn]SY[dK][dS]IPIPI; ester 3-C)
Outgoing: 4
